Property: IC50; scope: individual compounds
# STUDY_SYSTEM: FLT3 (Homo sapiens)
# Sequence (P36888 27-993): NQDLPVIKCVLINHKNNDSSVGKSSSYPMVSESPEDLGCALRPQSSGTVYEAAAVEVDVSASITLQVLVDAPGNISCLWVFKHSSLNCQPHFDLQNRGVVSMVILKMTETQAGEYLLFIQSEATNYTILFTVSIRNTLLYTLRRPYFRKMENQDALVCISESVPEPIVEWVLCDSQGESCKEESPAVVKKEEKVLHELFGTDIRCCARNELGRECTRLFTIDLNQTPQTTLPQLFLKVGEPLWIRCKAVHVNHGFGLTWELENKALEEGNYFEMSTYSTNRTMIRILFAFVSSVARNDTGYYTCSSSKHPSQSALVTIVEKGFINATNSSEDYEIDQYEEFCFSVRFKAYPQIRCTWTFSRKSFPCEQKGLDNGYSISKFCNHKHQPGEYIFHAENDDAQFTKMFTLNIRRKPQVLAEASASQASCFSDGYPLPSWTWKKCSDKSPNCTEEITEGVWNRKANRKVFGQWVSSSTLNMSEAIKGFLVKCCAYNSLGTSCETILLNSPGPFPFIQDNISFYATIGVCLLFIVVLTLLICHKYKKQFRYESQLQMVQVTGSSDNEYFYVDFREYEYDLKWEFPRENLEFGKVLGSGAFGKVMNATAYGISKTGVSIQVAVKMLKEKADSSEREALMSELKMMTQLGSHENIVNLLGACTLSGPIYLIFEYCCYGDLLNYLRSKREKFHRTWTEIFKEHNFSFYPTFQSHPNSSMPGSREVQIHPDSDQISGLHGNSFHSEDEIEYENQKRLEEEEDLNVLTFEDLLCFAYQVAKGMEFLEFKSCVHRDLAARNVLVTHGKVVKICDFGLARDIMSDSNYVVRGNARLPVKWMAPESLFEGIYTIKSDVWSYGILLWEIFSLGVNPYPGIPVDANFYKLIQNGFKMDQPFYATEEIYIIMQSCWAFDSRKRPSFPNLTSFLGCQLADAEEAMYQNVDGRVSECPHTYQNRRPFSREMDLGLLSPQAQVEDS

{"COMPOUND": "[2H]C([2H])([2H])n1cc(-c2[nH]c3ncc4c(c3c2-c2ccc3c(c2)COC3(C)C)n([C@@H]2CC[C@@H](NC(=O)OC)C2)c(=O)n4C([2H])([2H])[2H])c(F)n1 [Example 8]", "STUDY_SYSTEM": "FLT3 (Homo sapiens)", "IC50": "> 2.5 µM"}
{"COMPOUND": "[2H]C([2H])([2H])n1cc(-c2[nH]c3ncc4c(c3c2-c2ccc3c(cnn3C(C)C)c2)n([C@@H]2CC[C@@H](NC(=O)OC)C2)c(=O)n4C([2H])([2H])[2H])c(F)n1 [Example 13]", "STUDY_SYSTEM": "FLT3 (Homo sapiens)", "IC50": "> 2.5 µM"}
{"COMPOUND": "[2H]C([2H])([2H])n1cc(-c2[nH]c3ncc4c(c3c2-c2ccc(C(C)(C)O)cc2)n([C@@H]2CC[C@@H](NC(=O)OC)C2)c(=O)n4C([2H])([2H])[2H])c(F)n1 [Example 10]", "STUDY_SYSTEM": "FLT3 (Homo sapiens)", "IC50": "0.25 to 1.25 µM"}
{"COMPOUND": "[2H]C([2H])([2H])Oc1ccc(-c2c(-c3cn(C([2H])([2H])[2H])nc3F)[nH]c3ncc4c(c23)n([C@@H]2CC[C@@H](NC(=O)OC)C2)c(=O)n4C([2H])([2H])[2H])cc1 [Example 9]", "STUDY_SYSTEM": "FLT3 (Homo sapiens)", "IC50": "0.25 to 1.25 µM"}
{"COMPOUND": "[2H]C([2H])([2H])n1cc(-c2[nH]c3ncc4c(c3c2-c2ccc3c(c2)COC3(C)C)n([C@@H]2CC[C@@H](NC(=O)OC)C2)c(=O)n4C)c(F)n1 [Example 11]", "STUDY_SYSTEM": "FLT3 (Homo sapiens)", "IC50": "> 2.5 µM"}

====

Property: pIC50; scope: individual molecules
# STUDY_SYSTEM: pseudo-kinase domain (JH2) of human V617F mutant JAK2 (Homo sapiens, UniProt O60674, F794H/V617F/W659A/W777A)
# Construct: pseudo-kinase domain (JH2, amino-acids 536-812 with 3 surface mutations W659A, W777A, F794H); His (C); purchased BPS Bioscience 79498; host or cells: baculovirus expression system
# Sequence (O60674 536-812 V617F/W659A/W777A/F794H): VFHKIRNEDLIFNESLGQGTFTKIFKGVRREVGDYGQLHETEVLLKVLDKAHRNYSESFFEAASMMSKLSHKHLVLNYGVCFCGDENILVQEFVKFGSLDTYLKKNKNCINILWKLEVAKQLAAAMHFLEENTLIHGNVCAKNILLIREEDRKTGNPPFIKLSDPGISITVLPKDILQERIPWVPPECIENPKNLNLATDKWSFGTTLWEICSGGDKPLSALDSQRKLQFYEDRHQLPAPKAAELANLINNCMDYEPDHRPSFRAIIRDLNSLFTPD
# METHOD_SUMMARY: JAK2 LanthaScreen JH2-V617F binding assay
# RECORDED_CONDITIONS: Table C; read-out: JH2 V617F Bind IC50
pIC50: −log10 of the molar value.
PROPERTY_MEASURED: pIC50

{"SMILES_INPUT": "[2H]C([2H])([2H])Oc1ccc(-c2c(-c3cn(C([2H])([2H])[2H])nc3F)[nH]c3ncc4c(c23)n([C@@H]2CC[C@@H](NC(=O)OC)C2)c(=O)n4C([2H])([2H])[2H])cc1", "PROPERTY_MEASURED": "pIC50", "VALUE_REPORTED": "≥ 8.00"}
{"SMILES_INPUT": "[2H]C([2H])([2H])n1ncc2cc(-c3c(-c4cn(C)nc4OC)[nH]c4ncc5c(c34)n([C@@H]3CC[C@@H](NC(=O)OC)C3)c(=O)n5C)ccc21", "PROPERTY_MEASURED": "pIC50", "VALUE_REPORTED": "≥ 8.00"}
{"SMILES_INPUT": "[2H]C([2H])([2H])n1cc(-c2[nH]c3ncc4c(c3c2-c2ccc(C(C)(C)O)cc2)n([C@@H]2CC[C@@H](NC(=O)OC)C2)c(=O)n4C([2H])([2H])[2H])c(F)n1", "PROPERTY_MEASURED": "pIC50", "VALUE_REPORTED": "≥ 8.00"}

====

# STUDY_SYSTEM: TRKA (Homo sapiens, UniProt P04629)
# Sequence (P04629 33-796, species assumed): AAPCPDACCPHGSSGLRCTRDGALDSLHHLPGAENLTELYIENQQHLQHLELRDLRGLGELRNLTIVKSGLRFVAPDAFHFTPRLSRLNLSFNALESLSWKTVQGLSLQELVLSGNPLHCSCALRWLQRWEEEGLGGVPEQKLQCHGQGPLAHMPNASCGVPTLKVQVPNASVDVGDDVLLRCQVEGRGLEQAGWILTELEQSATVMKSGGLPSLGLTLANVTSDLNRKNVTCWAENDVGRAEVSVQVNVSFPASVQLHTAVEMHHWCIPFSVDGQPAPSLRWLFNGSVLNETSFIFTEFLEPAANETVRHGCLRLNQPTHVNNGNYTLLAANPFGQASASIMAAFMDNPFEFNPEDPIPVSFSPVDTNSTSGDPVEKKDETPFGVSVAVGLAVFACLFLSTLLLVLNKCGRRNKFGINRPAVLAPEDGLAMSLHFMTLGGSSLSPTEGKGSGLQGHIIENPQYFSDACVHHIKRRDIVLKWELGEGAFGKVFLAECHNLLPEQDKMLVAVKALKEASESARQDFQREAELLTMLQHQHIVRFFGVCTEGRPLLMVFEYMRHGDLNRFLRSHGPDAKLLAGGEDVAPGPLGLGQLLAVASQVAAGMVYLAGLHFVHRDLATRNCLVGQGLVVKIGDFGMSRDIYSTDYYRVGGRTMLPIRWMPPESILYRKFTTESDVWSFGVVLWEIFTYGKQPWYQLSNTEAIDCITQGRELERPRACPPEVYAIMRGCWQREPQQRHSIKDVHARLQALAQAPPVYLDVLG
Property: IC50; scope: individual molecules
PROPERTY_MEASURED: IC50

{"MOLECULE": "COc1nn(C)cc1-c1[nH]c2ncc3c(c2c1-c1ccc2c(cnn2C)c1)n(C1CCOCC1)c(=O)n3C [A, reference compound]", "PROPERTY_MEASURED": "IC50", "VALUE_REPORTED": "1250 to 2500 nM"}
{"MOLECULE": "[2H]C([2H])([2H])n1ncc2cc(-c3c(-c4cn(C)nc4OC)[nH]c4ncc5c(c34)n(C3CCOCC3)c(=O)n5C)ccc21 [B, reference compound]", "PROPERTY_MEASURED": "IC50", "VALUE_REPORTED": "> 2500 nM"}
{"MOLECULE": "[2H]C([2H])([2H])n1cc(-c2[nH]c3ncc4c(c3c2-c2ccc(C(C)(C)O)cc2)n([C@@H]2CC[C@@H](NC(=O)OC)C2)c(=O)n4C([2H])([2H])[2H])c(F)n1 [Example 10]", "PROPERTY_MEASURED": "IC50", "VALUE_REPORTED": "> 2500 nM"}

====

# STUDY_SYSTEM: KIT (Homo sapiens, UniProt P10721)
# Sequence (P10721 26-976, species assumed): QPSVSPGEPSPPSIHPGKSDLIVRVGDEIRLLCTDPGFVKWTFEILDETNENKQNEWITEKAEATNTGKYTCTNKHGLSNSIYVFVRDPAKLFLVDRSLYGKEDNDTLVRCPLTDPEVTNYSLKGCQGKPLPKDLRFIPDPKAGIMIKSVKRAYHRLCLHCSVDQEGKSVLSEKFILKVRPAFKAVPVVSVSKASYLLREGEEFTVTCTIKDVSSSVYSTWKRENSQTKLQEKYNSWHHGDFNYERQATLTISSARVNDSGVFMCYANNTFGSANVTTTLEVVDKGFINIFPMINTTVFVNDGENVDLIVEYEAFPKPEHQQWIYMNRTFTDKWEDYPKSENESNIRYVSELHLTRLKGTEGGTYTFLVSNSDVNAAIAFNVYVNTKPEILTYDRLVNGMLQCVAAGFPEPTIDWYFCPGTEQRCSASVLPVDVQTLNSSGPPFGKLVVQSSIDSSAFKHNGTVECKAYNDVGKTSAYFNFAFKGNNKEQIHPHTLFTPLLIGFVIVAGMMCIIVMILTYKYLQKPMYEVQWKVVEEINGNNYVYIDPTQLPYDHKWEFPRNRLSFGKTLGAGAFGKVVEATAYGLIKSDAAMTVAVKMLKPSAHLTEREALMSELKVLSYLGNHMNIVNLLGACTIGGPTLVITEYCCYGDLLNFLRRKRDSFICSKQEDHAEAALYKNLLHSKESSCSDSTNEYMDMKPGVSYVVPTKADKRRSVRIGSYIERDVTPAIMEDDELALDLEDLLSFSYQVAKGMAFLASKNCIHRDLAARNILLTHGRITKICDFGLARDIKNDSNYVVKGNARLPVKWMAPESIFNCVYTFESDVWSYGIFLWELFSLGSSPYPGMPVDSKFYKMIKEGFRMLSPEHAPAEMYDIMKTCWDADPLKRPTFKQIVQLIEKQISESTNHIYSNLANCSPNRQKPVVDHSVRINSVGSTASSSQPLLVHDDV

{"COMPOUND": "[2H]C([2H])([2H])n1cc(-c2[nH]c3ncc4c(c3c2-c2cc(F)c3c(cnn3C([2H])([2H])[2H])c2)n([C@@H]2CC[C@@H](NC(=O)OC)C2)c(=O)n4C([2H])([2H])[2H])c(F)n1", "IC50": "1250 to 2500 nM"}
{"COMPOUND": "COC(=O)N[C@@H]1CC[C@@H](n2c(=O)n(C)c3cnc4[nH]c(-c5cn(C)nc5OC)c(-c5ccccc5)c4c32)C1", "IC50": "> 2500 nM"}
{"COMPOUND": "[2H]C([2H])([2H])n1cc(-c2[nH]c3ncc4c(c3c2-c2ccc3c(cnn3C([2H])([2H])[2H])c2)n([C@@H]2CC[C@@H](NC(=O)OC)C2)c(=O)n4C([2H])([2H])[2H])c(F)n1", "IC50": "250 to 1250 nM"}
{"COMPOUND": "[2H]C([2H])([2H])n1ncc2cc(-c3c(-c4cn(C([2H])(C([2H])([2H])[2H])C([2H])([2H])[2H])nc4F)[nH]c4ncc5c(c34)n([C@@H]3CC[C@@H](NC(=O)OC)C3)c(=O)n5C([2H])([2H])[2H])ccc21", "IC50": "1250 to 2500 nM"}
{"COMPOUND": "COc1nn(C)cc1-c1[nH]c2ncc3c(c2c1-c1ccc2c(cnn2C)c1)n(C1CCOCC1)c(=O)n3C [A, reference compound]", "IC50": "250 to 1250 nM"}
{"COMPOUND": "[2H]C([2H])([2H])n1cc(-c2[nH]c3ncc4c(c3c2-c2ccc(C(C)(C)O)cc2)n([C@@H]2CC[C@@H](NC(=O)OC)C2)c(=O)n4C([2H])([2H])[2H])c(F)n1", "IC50": "250 to 1250 nM"}
{"COMPOUND": "[2H]C([2H])([2H])n1c(=O)n([C@@H]2CC[C@@H](NC(=O)OC)C2)c2c3c(-c4ccc5c(c4)COC5(C)C)c(-c4cn(CC)nc4F)[nH]c3ncc21", "IC50": "> 2500 nM"}
{"COMPOUND": "[2H]C([2H])([2H])n1cc(-c2[nH]c3ncc4c(c3c2-c2ccc3c(cnn3C(C)C)c2)n([C@@H]2CC[C@@H](NC(=O)OC)C2)c(=O)n4C)c(F)n1", "IC50": "1250 to 2500 nM"}
